The measurements presented in this section are drawn from patent US20220227830A1.

Please respond with reported Human GIPR cAMP, HEK293T EC50 for every item in the list.
# target under test: T1, full-length human GIPR with an N-terminal FLAG tag (human, UniProt P48546 22-466)
# T1 sequence (looked up): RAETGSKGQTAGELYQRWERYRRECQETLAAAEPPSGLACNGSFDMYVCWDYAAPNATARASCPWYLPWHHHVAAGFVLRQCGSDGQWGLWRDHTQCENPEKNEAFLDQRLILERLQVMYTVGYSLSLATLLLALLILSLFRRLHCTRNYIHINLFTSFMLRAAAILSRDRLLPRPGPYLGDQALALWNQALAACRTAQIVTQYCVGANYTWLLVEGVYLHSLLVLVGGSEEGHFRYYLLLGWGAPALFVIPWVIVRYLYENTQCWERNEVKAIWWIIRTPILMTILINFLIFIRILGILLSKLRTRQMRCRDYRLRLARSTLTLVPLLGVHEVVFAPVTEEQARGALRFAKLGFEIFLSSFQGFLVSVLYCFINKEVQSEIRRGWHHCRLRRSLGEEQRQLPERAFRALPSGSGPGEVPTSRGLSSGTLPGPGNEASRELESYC
# assay details: cell-based or functional assay
Starred links: 1 amine or outer side, 2 acyl side, 3 side chain; linkers in the order of their positions; H or OH if unused. Non-standard residues stand in square brackets, D forms with d. Groups on a side chain read outwards from the residue. *: point of attachment. C15 diacid = O=C(O)CCCCCCCCCCCCCC(=O)*; γGlu = O=C(O)[C@H](CCC(=O)[*:2])N[*:1]; AEEA = NCCOCCOCC(=O)O; Aib = CC(C)(N)C(=O)O
Answers are plain numbers, in pM.

binder="Me-Y[Aib]EGTFISDYSI[Aib]K([AEEA-AEEA-γGlu-γGlu-C15 diacid])DR[Aib]AQ[Aib]NFVNWLLAQRPSSGAPPPS-NH2 [Compound 19]" result=0.4

Attention now turns to another entry.
GET /values?readout=Human GIPR cAMP, HEK293T EC50&item= Me-Y[Aib]EGTFISDYSIAKDS[Aib]AQ[Aib]DFVNWLLAQRPSSGAPPPS-NH2 (not fully specified (residues 1, 14)) [Compound 153] 0.2
